Origin of measurements: the supplement of paper PMC6555819

System: PXR:RXRa (NR concentration 270 nM, RXRa partner concentration 90 nM)
Assay: PBM binding z-score (relative to random genomic background probes); higher = stronger binding; sequences stand for … in GC…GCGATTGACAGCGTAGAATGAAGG
assayMetric: PBM binding z-score
# answer = number (no unit)

Below, each entry is followed by its recorded PBM binding z-score result.
residueString	assayMetric	resultNumber
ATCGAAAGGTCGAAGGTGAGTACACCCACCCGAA	PBM binding z-score	3.49
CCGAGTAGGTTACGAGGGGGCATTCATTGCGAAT	PBM binding z-score	4.23
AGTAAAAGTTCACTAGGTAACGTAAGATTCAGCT	PBM binding z-score	3.04
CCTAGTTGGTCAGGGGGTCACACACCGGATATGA	PBM binding z-score	5.01
CAAAATAGGTCAAGAGGTCAAAGTCCGCTTCCCG	PBM binding z-score	6.31

Query: What does the data say about its PBM binding z-score? Entry: `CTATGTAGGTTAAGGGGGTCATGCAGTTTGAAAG`
Result: 5.74

Query: Likewise for `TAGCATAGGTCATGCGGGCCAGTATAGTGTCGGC` ?
Result: 2.83

Query: Likewise for `CAAACCAGGTCACGAAAGGTCAAAGTCGAATGAC` ?
Result: 7.33

Query: Likewise for `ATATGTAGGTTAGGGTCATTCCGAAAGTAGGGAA` ?
Result: 4.29

Query: Likewise for `AAAATGAGGTTAAGATCAGGGAAACAGAATACAT` ?
Result: 1.26

Query: Likewise for `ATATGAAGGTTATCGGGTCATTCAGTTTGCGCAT` ?
Result: 3.93

Query: Likewise for `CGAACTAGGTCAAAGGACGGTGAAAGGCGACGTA` ?
Result: 0.75

###

Tested on: THRa homodimer (NR concentration 90 nM)
Experiment: PBM binding z-score (relative to random genomic background probes); higher = stronger binding; sequences stand for … in GC…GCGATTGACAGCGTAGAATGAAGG
Recorded PBM binding z-score by entry
# answer = number (no unit)

Below, each entry is followed by its recorded PBM binding z-score result.
residueString	assayedSystem	PBM binding z-score
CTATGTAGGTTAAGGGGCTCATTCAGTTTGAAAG	THRa homodimer (NR concentration 90 nM)	0.0604
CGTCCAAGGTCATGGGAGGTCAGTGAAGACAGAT	THRa homodimer (NR concentration 90 nM)	3.83
CCTACTGTGCCATTCAGAGGTCATTGATCATATG	THRa homodimer (NR concentration 90 nM)	2.43
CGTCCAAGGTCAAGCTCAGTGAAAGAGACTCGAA	THRa homodimer (NR concentration 90 nM)	2.32
ATATGTAGGTGAAGGGTCATTCAGGTTGGTTCGC	THRa homodimer (NR concentration 90 nM)	1.35
GCTTACGGGTCAAAAGTTATAGCATGAATAGAAT	THRa homodimer (NR concentration 90 nM)	-0.478

Query: What does the data say about its PBM binding z-score? Entry: `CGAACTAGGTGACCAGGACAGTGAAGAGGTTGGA`
Result: 0.885

Query: Likewise for `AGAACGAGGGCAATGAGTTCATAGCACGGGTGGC` ?
Result: 0.398

###

Test system: FXR:RXRa (NR concentration 270 nM, RXRa partner concentration 90 nM)
Experiment: PBM binding z-score (relative to random genomic background probes); higher = stronger binding; sequences stand for … in GC…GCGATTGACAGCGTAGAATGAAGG
Label Y when PBM binding z-score >= 2; otherwise N.

Solved entries (count: 2):
residueString	assayedSystem	assignedCategory
CCGAGTAGGTTACGAGGGGGCGTTCAGTGCGAAT	FXR:RXRa (NR concentration 270 nM, RXRa partner concentration 90 nM)	N
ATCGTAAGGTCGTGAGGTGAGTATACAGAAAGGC	FXR:RXRa (NR concentration 270 nM, RXRa partner concentration 90 nM)	Y

Query: Is the recorded value of PBM binding z-score equal to or greater than 2 for this sequence? `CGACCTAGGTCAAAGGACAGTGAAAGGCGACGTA`
Result: Y

Query: Likewise for `TCGAGTAGGTTACGCGGGCATTCAGGGATGAAGA` ?
Result: N

Query: Likewise for `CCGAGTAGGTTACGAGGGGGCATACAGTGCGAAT` ?
Result: Y

Query: Likewise for `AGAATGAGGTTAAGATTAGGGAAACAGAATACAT` ?
Result: Y
